TGT: α1-adrenoceptor (3H-prazosin binding sites)
EXPERIMENTAL_DETAILS: displacement of 3H-prazosin from rat cerebral cortical (brain) membranes
CONDITION_INFO: 3H-prazosin displacement, rat cerebral cortical membranes
MEASURED_METRIC: -logIC50

* COC(=O)/C=C/C=C/C(=O)N1CCN(c2nc(N)c3cc(OC)c(OC)cc3n2)CC1 | 8.01
* COc1cc2nc(N3CCN(C(=O)C#Cc4ccccc4)CC3)nc(N)c2cc1OC | 7.92
* COc1cc2nc(N3CCN(C(=O)C4=CC5C=CC4CC5)CC3)nc(N)c2cc1OC (centres unmarked) | 7.99
* COC(=O)/C=C/C(=O)Nc1ccc(CCCCC(=O)N2CCN(c3nc(N)c4cc(OC)c(OC)cc4n3)CC2)cc1 | 8.07
* COc1cc2nc(N3CCN(C(=O)COc4ccccc4)CC3)nc(N)c2cc1OC | 7.90
